FYI, the data here is from patent US20260116991A1.

Target: T1, human GPC3-His protein (human, UniProt P51654 25-559)
T1 construct: Bought protein; also called human GPC3 protein; not shown: His tag
Test: ELISA, coated human GPC3, antibody 10 nM;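 further: plate coated with antigen at 1 µg/mL, antibodies bound 2 h at 37 °C, detected via HRP-conjugated secondary antibody and TMB substrate, absorbance read after acid stop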
OBSERVED_PROPERTY: OD450 nm

BINDER	RESULT
F2.23.8 human-murine chimeric antibody (antibody, human IgG1, kappa, V domains shown) VH: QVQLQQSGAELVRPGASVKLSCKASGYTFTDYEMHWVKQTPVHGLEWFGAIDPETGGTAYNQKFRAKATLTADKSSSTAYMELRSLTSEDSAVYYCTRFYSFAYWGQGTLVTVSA VL: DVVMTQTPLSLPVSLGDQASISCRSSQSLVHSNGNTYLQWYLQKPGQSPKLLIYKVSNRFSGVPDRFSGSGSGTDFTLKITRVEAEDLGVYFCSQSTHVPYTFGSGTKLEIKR	2.35 OD450
F1.153.1 human-murine chimeric antibody (antibody, human IgG1, kappa, V domains shown) VH: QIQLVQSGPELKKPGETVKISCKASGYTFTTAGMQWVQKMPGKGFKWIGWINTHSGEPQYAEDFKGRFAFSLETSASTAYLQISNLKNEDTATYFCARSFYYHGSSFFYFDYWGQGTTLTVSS VL: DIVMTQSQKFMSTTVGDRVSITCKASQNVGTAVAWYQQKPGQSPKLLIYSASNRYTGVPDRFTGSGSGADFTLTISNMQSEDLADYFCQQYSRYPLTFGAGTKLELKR	1.85 OD450
F1.110.24 human-murine chimeric antibody (antibody, human IgG1, kappa, V domains shown) VH: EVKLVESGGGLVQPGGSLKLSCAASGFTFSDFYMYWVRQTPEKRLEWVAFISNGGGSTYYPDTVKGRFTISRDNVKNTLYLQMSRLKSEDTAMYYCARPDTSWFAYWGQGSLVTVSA VL: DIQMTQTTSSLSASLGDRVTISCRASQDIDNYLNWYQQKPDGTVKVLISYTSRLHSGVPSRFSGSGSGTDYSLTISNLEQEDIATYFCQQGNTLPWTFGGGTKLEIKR	1.18 OD450
F4.13.7 human-murine chimeric antibody (antibody, human IgG1, kappa, V domains shown) VH: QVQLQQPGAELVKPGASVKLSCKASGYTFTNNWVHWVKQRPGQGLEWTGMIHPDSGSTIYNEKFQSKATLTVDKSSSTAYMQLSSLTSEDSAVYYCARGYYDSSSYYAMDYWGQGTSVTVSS VL: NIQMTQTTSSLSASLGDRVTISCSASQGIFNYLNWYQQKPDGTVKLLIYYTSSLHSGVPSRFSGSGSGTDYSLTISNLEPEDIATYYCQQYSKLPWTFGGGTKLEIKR	2.27 OD450

Look up OD450 nm for this binder: F1.92.17 human-murine chimeric antibody (antibody, human IgG1, kappa, V domains shown) VH: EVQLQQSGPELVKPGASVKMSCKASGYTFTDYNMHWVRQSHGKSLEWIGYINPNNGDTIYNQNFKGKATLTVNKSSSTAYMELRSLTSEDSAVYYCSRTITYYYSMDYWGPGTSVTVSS VL: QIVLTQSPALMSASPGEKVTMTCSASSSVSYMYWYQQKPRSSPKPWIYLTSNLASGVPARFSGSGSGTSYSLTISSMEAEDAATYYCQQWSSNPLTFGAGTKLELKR
1.19 OD450
